- System: BDF1 mice, s.c. Lewis lung carcinoma, T/C %
- protocol.text: NCI In Vivo Anticancer Drug Screen. Data for tumor model Lewis Lung Carcinoma (subcutaneous) in B6D2F1 (BDF1) mice
- measurement.context: endpoint: mean tumor weight; dose: 200.0 mg/kg/injection; schedule: Q01DX011 (ip); vehicle: other; higher = larger tumour
- Experimental: The antitumor activity of compounds was measured in mice bearing transplantable tumors. Survival or tumor size were measured and the results are expressed as the measurement made in the treated group (T) divided by the measurement made in the vehicle treated control group (C). The tumor model used in this assay is Lewis Lung Carcinoma (subcutaneous) in B6D2F1 (BDF1) mice
Records with an inconclusive call do not appear.
# T/C per record follows

>  <molecule>
Cc1cc(O)c(C(C)C)cc1S(=O)(=O)O (tested in a mixture with another compound)

>  <T/C>
98 % of control

$$$$
>  <molecule>
C1=Cc2ccccc2CC1

>  <T/C>
46 % of control

$$$$
>  <molecule>
Nc1ncnc2c1ncn2C1CCCO1 (configuration not stated)

>  <T/C>
37 % of control

$$$$
>  <molecule>
Cc1nnc(N)s1

>  <T/C>
77 % of control

$$$$
>  <molecule>
Fc1ccc(CSc2ncnc3c2ncn3C2CCCCO2)cc1 (configuration not stated)

>  <T/C>
73 % of control

$$$$
>  <molecule>
O=P(Oc1ccccc1)(Oc1ccccc1)c1ccccc1

>  <T/C>
91 % of control

$$$$
>  <molecule>
CS(=O)(=O)c1ccccc1

>  <T/C>
79 % of control

$$$$
>  <molecule>
O=c1n(CCCl)c(=O)n(CCCl)c(=O)n1CCCl

>  <T/C>
113 % of control

$$$$
>  <molecule>
CCCn1cnc2c(SCc3ccccc3Cl)nc(N)nc21

>  <T/C>
65 % of control

$$$$
>  <molecule>
CCCCCCCCCCCCO[P+](=O)OCCCCCCCCCCCC

>  <T/C>
76 % of control

$$$$
>  <molecule>
O=C1c2ccccc2CCc2ccccc21

>  <T/C>
173 % of control

$$$$
>  <molecule>
Cc1cccc(C)c1[N+](=O)[O-]

>  <T/C>
66 % of control

$$$$
>  <molecule>
CC(C)Sc1nc(N)nc2nc[nH]c12

>  <T/C>
52 % of control

$$$$
>  <molecule>
Clc1cccc(Br)c1

>  <T/C>
30 % of control

$$$$
>  <molecule>
O=C(O)CSC1(SCC(=O)O)CCCCC1

>  <T/C>
77 % of control

$$$$
>  <molecule>
S=c1c2[nH]cnc2ncn1CCSC1=NC=NC2=NC=NC21 (configuration not stated)

>  <T/C>
61 % of control

$$$$
>  <molecule>
CCN(C=O)CC

>  <T/C>
68 % of control

$$$$

---

- Test system: BDF1 mice, s.c. Lewis lung carcinoma, T/C %
- protocol.text: NCI In Vivo Anticancer Drug Screen. Data for tumor model Lewis Lung Carcinoma (subcutaneous) in B6D2F1 (BDF1) mice
- measurement.context: endpoint: mean tumor weight; dose: 10.0 mg/kg/injection; schedule: Q01DX011 (ip); vehicle: saline; higher = larger tumour
Results filed as inconclusive are left out.

>  <compound>
CC1OC(O[C@@H]2C=C3CC[C@@H]4[C@H](CC[C@]5(C)[C@@H](c6ccc(=O)oc6)CC[C@]45O)[C@@]3(C)CC2)C(O)C(O)C1O (stereo partly drawn)

>  <T/C>
83 % of control

$$$$
>  <compound>
O=c1[nH]cc(F)c(=O)[nH]1

>  <T/C>
68 % of control

$$$$
>  <compound>
CN(CCCOS(C)(=O)=O)CCCOS(C)(=O)=O

>  <T/C>
78 % of control

$$$$
>  <compound>
CC1CCOS(=O)O1 (stereo not drawn)

>  <T/C>
66 % of control

$$$$
>  <compound>
O=S1(=O)CCCO1

>  <T/C>
109 % of control

$$$$
>  <compound>
CC1([CH2][Hg][I])COCC([CH2][Hg][I])O1 (stereo not drawn)

>  <T/C>
42 % of control

$$$$
>  <compound>
O=C(O)C(=O)O.[U]

>  <T/C>
42 % of control

$$$$
>  <compound>
NCC(O)c1ccc(O)c(O)c1 (stereo not drawn)

>  <T/C>
63 % of control

$$$$
